# Test system: MDA-MB-231 (estrogen receptor negative breast cancer)
# test: Cell growth inhibition assay
# Format: cell-based
# test.parameters: Homo sapiens, MDA-MB-231, 72 h, read-out: ED50 against MDA-MB-231
measurement.label: IC50 (µM)
Answers are plain numbers, in µM.

IC50 for Cc1cccc2c1ccc1c3occ(C)c3c(=O)oc21 ? 37.9

* * *

# Test system: A549 (human lung cancer)
# test: Cell growth inhibition assay
# Type: cell-based
# test.parameters: A549, 72 h, read-out: ED50 against A549
measurement.label: pIC50
Answers are plain numbers, as −log10 of the molar value.

A549 (human lung cancer) / pIC50 / Cc1cccc2c1ccc1c3occ(C)c3c(=O)oc21 : value? 4.27

From: paper PMC2821697
